Origin of values: patent US11142515B2

# MEASURED TARGET: p38MAPKγ (MAPK12) (Homo sapiens, UniProt P53778)
# Construct: purchased Life Technologies
# Sequence (P53778 1-367): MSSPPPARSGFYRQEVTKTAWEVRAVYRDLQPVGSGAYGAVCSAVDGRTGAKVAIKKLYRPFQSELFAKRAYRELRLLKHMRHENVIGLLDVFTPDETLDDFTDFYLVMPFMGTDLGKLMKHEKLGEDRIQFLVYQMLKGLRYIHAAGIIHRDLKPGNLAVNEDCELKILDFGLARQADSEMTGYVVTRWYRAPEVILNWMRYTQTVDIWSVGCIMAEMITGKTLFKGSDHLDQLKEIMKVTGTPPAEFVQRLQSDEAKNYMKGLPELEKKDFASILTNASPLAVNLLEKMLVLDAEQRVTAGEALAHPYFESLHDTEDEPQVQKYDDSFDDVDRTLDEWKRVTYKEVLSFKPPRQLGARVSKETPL
# ASSAY PROTOCOL: p38 MAPKγ enzyme inhibition (Z-LYTE FRET)
# Format: biochemical
# CONDITION SET: Table 2B, unit inferred; read-out: p38 MAPKγ (Enzyme Profile)
pIC50: −log10 of the molar value.
Classification field: enter Yes for pIC50 values not below 7, No for values below it.

>>> answer_label("CN(C)c1cncc(Nc2cc(COc3ccc(NC(=O)Nc4cc(C(C)(C)C)nn4-c4ccc(CO)cc4)c4ccccc34)ccn2)n1")
"Yes"
>>> answer_label("Cc1ccc(-n2nc(C(C)(C)C)cc2NC(=O)Nc2ccc(OCc3ccnc(Nc4cnc(C(=O)NCCN5C[C@@H](C)O[C@@H](C)C5)cn4)c3)c3ccccc23)cc1")
"No"
>>> answer_label("CCc1cccc(-n2nc(C(C)(C)C)cc2NC(=O)Nc2ccc(OCc3ccnc(Nc4cncc(CC)n4)c3)c3ccccc23)c1")
"No"
>>> answer_label("Cc1ccc(-n2nc(C(C)(C)C)cc2NC(=O)Nc2ccc(OCc3ccnc(Nc4cnc(C(=O)N5CCN(C)CC5)cn4)c3)c3ccccc23)cc1")
"Yes"
